Target: MT2 receptor (Homo sapiens)
Test: ERK phosphorylation assay, MT2
Type: cell-based
Set-up: expressed in transfected cells
Conditions: HEK293 cells; isoquinolone 1 μM or 2-iodomelatonin 100 nM, 5 min; against unstimulated control cells
Excerpt: 3. ERK Phosphorylation Assay This assay indicates the ability of the novel compounds to activate MT1 or MT2 receptors by measuring downstream events of the activated receptor, in this case ERK phosphorylation. The amount of phosphorylated ERK1/2 was detected and quantified in western blots. The data in Table 2 is expressed as the fold stimulation against the unstimulated control cells. 6. Detection of ERK phosphorylation […] […] The image was scanned and the band intensities quantified using ImageJ 1.34. […]
assay.readout: ERK Phosphorylation MT2 Fold Stim.

[[record]]
compound = "COc1cc(COc2c(OC)ccc3c(=O)n(C)ccc23)cc(OC)c1 [IS528]"
assay_readout = "ERK Phosphorylation MT2 Fold Stim."
recorded_measurement = "1.71 Fold"

[[record]]
compound = "COc1cccc(COc2c(OC)ccc3c(=O)n(C)ccc23)c1 [IS527]"
assay_readout = "ERK Phosphorylation MT2 Fold Stim."
recorded_measurement = "2.21 Fold"

[[record]]
compound = "COc1ccc2c(=O)n(C)ccc2c1OCc1ccc(C)cc1 [IS529]"
assay_readout = "ERK Phosphorylation MT2 Fold Stim."
recorded_measurement = "1.23 Fold"


====

cAMP Assay MT1 % Inh by entry:
Target: MT1 receptor (Homo sapiens, UniProt P48039)
Sequence (P48039 whole entry): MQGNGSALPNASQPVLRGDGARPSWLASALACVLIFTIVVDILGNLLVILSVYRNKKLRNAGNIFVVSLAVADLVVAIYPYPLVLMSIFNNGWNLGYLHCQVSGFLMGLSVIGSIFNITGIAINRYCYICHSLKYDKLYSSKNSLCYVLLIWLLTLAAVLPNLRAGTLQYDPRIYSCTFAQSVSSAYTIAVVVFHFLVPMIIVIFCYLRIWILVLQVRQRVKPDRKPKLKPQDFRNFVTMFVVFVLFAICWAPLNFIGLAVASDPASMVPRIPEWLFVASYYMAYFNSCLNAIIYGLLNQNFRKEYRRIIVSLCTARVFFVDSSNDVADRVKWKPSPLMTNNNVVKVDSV
Test: cAMP assay, MT1
Assay type: cell-based
Design: expressed in transfected cells; host or cells: COS-7 (monkey kidney fibroblast)
Settings: inhibition of forskolin-stimulated cAMP production; MT1-expressing cells
assay.readout: cAMP Assay MT1 % Inh (%)

[[record]]
compound = "Cn1ccc2cc(OC(=O)c3ccccc3)c(OC(=O)c3ccccc3)cc2c1=O"
unit_name = "%"
recorded_measurement = 8.8

[[record]]
compound = "COc1ccc2c(=O)n(C)ccc2c1OCc1ccc(C)cc1"
unit_name = "%"
recorded_measurement = 34.0

[[record]]
compound = "COc1ccc2[nH]c(I)c(CCNC(C)=O)c2c1 [Compound 2-IMT, 2-iodomelatonin, reference compound]"
unit_name = "%"
recorded_measurement = 48.5

[[record]]
compound = "COc1cccc(COc2c(OC)ccc3c(=O)n(C)ccc23)c1"
unit_name = "%"
recorded_measurement = 28.3

[[record]]
compound = "COc1cc2ccn(C)c(=O)c2cc1OCc1ccc(C(C)(C)C)cc1"
unit_name = "%"
recorded_measurement = 26.9

[[record]]
compound = "COc1cccc(COc2cc3ccn(C)c(=O)c3cc2OC)c1"
unit_name = "%"
recorded_measurement = 72.9

[[record]]
compound = "COc1cccc(COc2cc3c(=O)n(C)ccc3cc2OC)c1"
unit_name = "%"
recorded_measurement = 19.4

[[record]]
compound = "COc1cc(COc2cc3ccn(C)c(=O)c3cc2OC)cc(OC)c1"
unit_name = "%"
recorded_measurement = 81.8

[[record]]
compound = "COc1cc(COc2c(OC)ccc3c(=O)n(C)ccc23)cc(OC)c1"
unit_name = "%"
recorded_measurement = 39.2

[[record]]
compound = "COc1cc(COc2cc3c(=O)n(C)ccc3cc2OC)cc(OC)c1"
unit_name = "%"
recorded_measurement = 18.6


====

Biological target: MT2 receptor (Homo sapiens, UniProt P49286)
Sequence (P49286 whole entry): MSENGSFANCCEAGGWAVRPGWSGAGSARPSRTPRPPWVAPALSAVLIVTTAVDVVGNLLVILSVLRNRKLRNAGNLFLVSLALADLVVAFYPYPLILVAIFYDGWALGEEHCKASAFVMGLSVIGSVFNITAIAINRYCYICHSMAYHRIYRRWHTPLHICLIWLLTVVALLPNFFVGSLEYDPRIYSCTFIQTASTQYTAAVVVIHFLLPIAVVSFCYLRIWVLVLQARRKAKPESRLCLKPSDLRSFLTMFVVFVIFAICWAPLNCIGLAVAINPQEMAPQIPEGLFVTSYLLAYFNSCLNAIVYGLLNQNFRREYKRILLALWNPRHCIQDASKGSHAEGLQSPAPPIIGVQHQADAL
Experiment: FLIPR Ca2+ mobilization assay, MT2
Assay type: cell-based
Parameters: expressed in transfected cells; host or cells: COS-7 (monkey kidney fibroblast)
Details: read-out: EC50 MT2
assay.readout: EC50

[[record]]
molecule = "C=CCOc1c(OC)ccc2c(=O)n(C)ccc12 [IS007]"
recorded_measurement = "3.51 nM"

[[record]]
molecule = "COc1cccc(COc2c(OC)ccc3c(=O)n(C)ccc23)c1 [IS527]"
recorded_measurement = "5.78 nM"

[[record]]
molecule = "COc1cc(COc2c(OC)ccc3c(=O)n(C)ccc23)cc(OC)c1 [IS528]"
recorded_measurement = "0.37 nM"

[[record]]
molecule = "COc1ccc2c(=O)n(C)ccc2c1OCc1ccccc1 [IS005]"
recorded_measurement = "48.5 nM"

